Origin of measurements: the domain aggregation screens of Martell et al. (2025)

- protocol-description: soluble fraction after stress (log2 fold change); higher = more stays soluble; pooled small domains, quantitative proteomics
- condition-details: stress: pH 4
Classify by soluble fraction (log2). Ranges: Low: < -0.3; Medium: ≥ -0.3 and < 0.002; High: ≥ 0.002

Reference set, count: 6
Query string: Lab log: HMTRLDLQNAFRVLPPEIQPAAVLFFLQERKQREIAKILGIGLPLVKYRIRKARELLAQFLRKEA — assign soluble fraction (log2) category
Result string: Medium

Query string: Which bin, given its soluble fraction (log2), does HMFTKSNLEKLSNSELILKAIDSGNYSKIEFGGSEALNPDVPSYKKDLKNREELIEILSEMGM occupy?
Result string: Medium

Query string: Please indicate the class for HMSSSYMVRITTSVLNVRKGPGTNYGITTKVKKGEVYTIVAEEKNGNTTWGKLKSGTGYISLGYTER based on its soluble fraction (log2).
Result string: Medium

Query string: Input HMSRVTVDVNPDVLQWAIDKKGKGDIKNKFPKIDEWLNGISKPTIHQLENFAKYVSVPFGYLLLSKPPVE ; output its category
Result string: High

Query string: GET /class?item= HMATPSTGQVSVVRLNLRVSPSISSPVVTRLTQGDTVKILAASDDGRWYKVATADGRTGWLYTIYITAE
Result string: Medium

Query string: Exam item: assign HMAGTWQDQGNGQWKYQNDDGSYATGWIEDSGKSYYLDANGIMLANTTTPDGKQVGPDGALIP to the correct category.
Result string: Low

Please turn your attention to the following entry.
Query string: Each sequence maps to one class by soluble fraction (log2). Which class for HMHKAVVGPPNARKLAVTYGFKRWPALVFFRDGKYLGAVDGLRLWADLVREADEIMHSEPHYP ?
Result string: High
